target: D(2) dopamine receptor (Rattus norvegicus, UniProt P61169); assay: In vitro binding affinity measured on dopamine receptor D2 using [3H]spiroperidol as radioligand.
Sequence (P61169 whole entry): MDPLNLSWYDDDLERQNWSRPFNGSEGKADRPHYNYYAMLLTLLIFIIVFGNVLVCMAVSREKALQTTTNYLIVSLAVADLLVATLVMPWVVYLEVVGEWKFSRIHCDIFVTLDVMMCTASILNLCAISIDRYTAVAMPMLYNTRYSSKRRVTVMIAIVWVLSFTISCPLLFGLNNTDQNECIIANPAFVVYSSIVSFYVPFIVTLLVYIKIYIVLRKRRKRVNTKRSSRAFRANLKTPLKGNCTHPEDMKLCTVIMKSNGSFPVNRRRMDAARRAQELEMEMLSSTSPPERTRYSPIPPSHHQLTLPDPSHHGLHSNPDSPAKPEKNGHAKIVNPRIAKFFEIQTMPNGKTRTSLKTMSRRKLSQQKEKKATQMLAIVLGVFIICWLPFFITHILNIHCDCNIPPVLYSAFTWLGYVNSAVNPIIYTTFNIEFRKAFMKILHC
pIC50: −log10 of the molar value.
Respond with 1 for pIC50 values of 7 and above, 0 for values below.

COc1ccccc1N1CCN(CCCCC2CCCc3c(OC)cccc32)CC1 (stereo not given)    1
COc1cccc2c1CCCC2CCCN1CCN(c2cccc(C(F)(F)F)c2)CC1 (stereo not given)    0
COc1ccc2c(c1)C(CCCN1CCN(c3cccc(C(F)(F)F)c3)CC1)=CCC2    0
COc1ccc2c(c1)C(CCCCN1CCN(c3ccccc3OC)CC1)CCC2 (stereo not given)    1
COc1ccc2c(c1)C(CCCN1CCN(c3ccccc3OC)CC1)CCC2 (stereo not given)    1
COc1cccc2c1CCCC2CCCN1CCN(c2ccccn2)CC1 (stereo not given)    0
COc1ccc2c(c1)C(CCCN1CCN(c3cccc(C(F)(F)F)c3)CC1)CCC2 (stereo not given)    0

// next entry
Challenge: Reported pIC50 reaches at least 7 for COc1ccc2c(c1)C(CCCN1CCN(c3ccccn3)CC1)=CCC2 ?
Response given: 0

====

Overview of recorded pIC50 for various molecules
molecular target: D(2) dopamine receptor (Rattus norvegicus); assay: In vitro binding affinity measured on dopamine receptor D2 using [3H]spiroperidol as radioligand.
By convention, pIC50 is the negative base-10 log of a molar concentration.

Record excerpt, results attached:
COc1ccccc1N1CCN(CC/C=C2\CCCc3ccccc32)CC1    7.90
COc1ccc2c(c1)C(CCCN1CCN(c3ccccn3)CC1)CCC2 (stereo unspecified)    6.48
COc1ccc2c(c1)C(CCCN1CCN(c3ccccc3)CC1)=CCC2    6.11
COc1ccc2c(c1)C(CCCN1CCN(c3ccccc3)CC1)CCC2 (stereo unspecified)    7.55
COc1ccc2c(c1)C(SCCN1CCN(c3ccccc3OC)CC1)CCC2 (stereo unspecified)    7.30

Challenge: Which measured pIC50 value corresponds to COc1cccc2c1CCC=C2CCCN1CCN(c2ccccc2)CC1 ?
Response given: 6.52

====

Sequence of the target: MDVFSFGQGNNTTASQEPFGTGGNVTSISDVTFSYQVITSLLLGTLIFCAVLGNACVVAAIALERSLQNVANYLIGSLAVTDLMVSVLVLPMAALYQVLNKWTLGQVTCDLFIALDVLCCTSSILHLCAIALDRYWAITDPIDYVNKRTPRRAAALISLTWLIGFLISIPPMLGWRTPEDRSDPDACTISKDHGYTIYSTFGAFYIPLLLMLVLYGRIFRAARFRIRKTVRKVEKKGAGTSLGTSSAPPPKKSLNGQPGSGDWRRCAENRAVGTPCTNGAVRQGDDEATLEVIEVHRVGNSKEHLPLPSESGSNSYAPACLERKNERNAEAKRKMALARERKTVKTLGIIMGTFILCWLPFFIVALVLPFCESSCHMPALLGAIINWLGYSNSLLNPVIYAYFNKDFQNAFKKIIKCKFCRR
Response field class: string, computed from recorded IC50 by ranges low interval = under 1 nM, middle interval = from 1 nM up to 10 nM, high interval = 10 nM and over

Challenge: Into which category would you place COc1ccc2c(c1)C(CCCN1CCN(c3ccccc3)CC1)CCC2 (stereo not drawn) ?
Response given: middle interval

Challenge: Record COc1cccc2c1CCC=C2CCCN1CCN(c2ccccn2)CC1 — which class?
Response given: middle interval
